- Test system: T-47D breast
- assay.remarks: NCI-60 one-dose screen, 48 h (100 = growth as untreated, 0 = no growth, -100 = all killed)
- test.settings: 10 µM unless noted
The panel holds about 83,000 compounds, 20% with a hit somewhere; the sample as a whole holds those more often.
Lab note: compare growth with 90%, writing T if less and F if equal or more.

These recorded examples may help you get a feel for the data.
INSERT INTO assay_data (compound, cat) VALUES
  ('CCCCC1Nc2nc(SC)n(C)c(=O)c2CN(Cc2ccccc2)C1=O (stereo unspecified)', 'F'),
  ('C=CC1=C(C(=O)O)N2C(=O)[C@@H](NC(=O)/C(=N\O)c3csc(N)n3)[C@H]2SC1 (stereo in doubt)', 'F'),
  ('COc1cccc2c1O/C(=C\c1c([N+](=O)[O-])ncn1C)C2=O', 'F'),
  ('Cc1cc(NCCCNc2ccnc3cc(Cl)ccc23)nc(N2CCN(C)CC2)n1', 'T'),
  ('Cc1cc2c(cc1[N+](=O)[O-])NC(CNC(C)C)CC2 (stereo unspecified)', 'T'),
  ('Clc1cccc(Cc2cn3cc(-c4ccccc4)nc3s2)c1', 'T'),
  ('C=C(C)[C@H]1CC/C(C)=C/CC[C@]2(C)O[C@H]2CC/C(COC(C)=O)=C\C1=O', 'F'),
  ('Cc1[nH]n(C(N)=S)c(=O)c1N=Nc1ccc(F)c(Cl)c1', 'F'),
  ('CCCCCCCCCCCCNc1ncnc2[nH]ncc12', 'T');

In the following, a different compound is considered.
Dear colleague, could you confirm whether growth of `CCOC(=O)c1c2c(c(C)n1Cc1ccccc1)-c1nc(N)ncc1CC2` falls below 90%? Thanks.
T
